Can you tell me combination Emax for the items I'm about to list?
system: OE33 (Esophageal Adenocarcinoma); experiment: combination Emax (second highest fraction inhibited in the dose matrix, 72 h); higher = more inhibition; extreme values may be limits of the assay

Past entries and their recorded results:
COc1cc2c(cc1OCCCCCOc1cc3c(cc1OC)C(=O)N1C=C(C)C[C@H]1C=N3)N=C[C@@H]1CC(C)=CN1C2=O [SG3199] + O=C(c1cc(Cc2n[nH]c(=O)c3ccccc23)ccc1F)N1CCN(C(=O)C2CC2)CC1 [Olaparib] (first compound max 0.001 µM, 7x7, partner max 10 µM): 0.0504
COc1nnc2ccc(N3CCC(c4ccc(OCCN5CCN(C)C(=O)[C@H]5C)cc4)CC3)nn12 [AZD5153] + Cc1c2c(nn1C)CSCc1cc(n(C)n1)CSc1cc(c3ccccc3c1)OCCCc1c(C(=O)O)n(C)c3c-2c(Cl)ccc13 [AZD5991] (first compound max 1 µM, 7x7, partner max 1 µM): 0.242

Continue with the compound presented below.
Query: Dear colleague, I am looking for the recorded combination Emax of the following compound: CN(CCO)CC[C@H](CSc1ccccc1)Nc1ccc(S(=O)(=O)NC(=O)c2ccc(N3CCC([C@@H](O)c4ccccc4-c4ccc(Cl)cc4)CC3)cc2)cc1S(=O)(=O)C(F)(F)F [AZD4320] + Cc1cc2ncnn2cc1Nc1ncc2c(n1)n(C1CCOCC1)c(=O)n2C [AZD7648] (first compound max 1 µM, 7x7, partner max 10 µM)
Result: 0.222

---

system: HAL-01 (B-Lymphoblastic Leukemia); assay: combination Emax (second highest fraction inhibited in the dose matrix, 72 h); higher = more inhibition; extreme values may be limits of the assay
Measurement label: combination Emax
Give bare numbers.

Look over these answered cases.
COc1cccc(OCCCN)c1-c1cc(Nc2cnc(C#N)cn2)n[nH]1 [Prexasertib] + C=CCn1c(=O)c2cnc(Nc3ccc(N4CCN(C)CC4)cc3)nc2n1-c1cccc(C(C)(C)O)n1 [AZD1775] (first compound max 1 µM, partner max 1 µM): 1
Cc1c2c(nn1C)CSCc1cc(n(C)n1)CSc1cc(c3ccccc3c1)OCCCc1c(C(=O)O)n(C)c3c-2c(Cl)ccc13 [AZD5991] + CCN(CCO)CCCOc1ccc2c(Nc3cc(CC(=O)Nc4cccc(F)c4)[nH]n3)ncnc2c1 [AZD2811] (first compound max 1 µM, 7x7, partner max 1 µM): 0.468

We next turn to a different compound, shown below.
Query: // returns reported combination Emax for input C[C@@H](c1ccc2nccn2c1)n1nnc2ncc(-c3cnn(C)c3)nc21 [Savolitinib] + CC1(C)CCC(CN2CCN(c3ccc(C(=O)NS(=O)(=O)c4ccc(NCC5CCOCC5)c([N+](=O)[O-])c4)c(Oc4cnc5[nH]ccc5c4)c3)CC2)=C(c2ccc(Cl)cc2)C1 [Venetoclax] (first compound max 1 µM, 7x7, partner max 1 µM)
Result: 0.703

---

system: MOLT-4 (T-Lymphoblastic Leukemia); assay: Bliss excess, mean over the matrix (fraction); higher = more synergy;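 also: after 72 h of two-drug dosing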
Assignment: determine reported Bliss excess for the given compounds.
Numbers only.

// solved cases for Bliss excess follow
CN(CCO)CC[C@H](CSc1ccccc1)Nc1ccc(S(=O)(=O)NC(=O)c2ccc(N3CCC([C@@H](O)c4ccccc4-c4ccc(Cl)cc4)CC3)cc2)cc1S(=O)(=O)C(F)(F)F [AZD4320] + CN(C)CCCOc1ccc(-c2ccc3ncc4c(c3c2)n(C2CCOCC2)c(=O)n4C)cn1 [AZD0156] (first compound max 1 µM, 7x7, partner max 1 µM): 0.0052
C[C@@H](c1ccc2nccn2c1)n1nnc2ncc(-c3cnn(C)c3)nc21 [Savolitinib] + Cc1c2c(nn1C)CSCc1cc(n(C)n1)CSc1cc(c3ccccc3c1)OCCCc1c(C(=O)O)n(C)c3c-2c(Cl)ccc13 [AZD5991] (first compound max 1 µM, 7x7, partner max 1 µM): 0.0706
CN(C)CCCOc1ccc(-c2ccc3ncc4c(c3c2)n(C2CCOCC2)c(=O)n4C)cn1 [AZD0156] + C=CCn1c(=O)c2cnc(Nc3ccc(N4CCN(C)CC4)cc3)nc2n1-c1cccc(C(C)(C)O)n1 [AZD1775] (first compound max 1 µM, partner max 1 µM): 0.0118
Cn1cnc2c(F)c(Nc3ccc(Br)cc3Cl)c(C(=O)NOCCO)cc21 [Selumetinib] + C[C@@H]1COCCN1C2=NC(=NC(=C2)C3(CC3)[S@](=N)(=O)C)C4=C5C=CNC5=NC=C4 [AZD6738] (first compound max 10 µM, 7x7, partner max 10 µM): -0.0181
COc1nnc2ccc(N3CCC(c4ccc(OCCN5CCN(C)C(=O)[C@H]5C)cc4)CC3)nn12 [AZD5153] + Cn1cnc2c(F)c(Nc3ccc(Br)cc3Cl)c(C(=O)NOCCO)cc21 [Selumetinib] (first compound max 1 µM, 7x7, partner max 10 µM): -0.0161
Cc1c2c(nn1C)CSCc1cc(n(C)n1)CSc1cc(c3ccccc3c1)OCCCc1c(C(=O)O)n(C)c3c-2c(Cl)ccc13 [AZD5991] + C1CN(CCC1(C(=O)N[C@@H](CCO)C2=CC=C(C=C2)Cl)N)C3=NC=NC4=C3C=CN4 [Capivasertib] (first compound max 1 µM, 7x7, partner max 3 µM): 0.0964

# per-item lookup of Bliss excess; items listed below
1. Cc1nc(-c2cn3c(n2)-c2ccc(-c4cnn(C(C)(C)C(N)=O)c4)cc2OCC3)n(C(C)C)n1 [Taselisib] + O=C(Nc1ccc2[nH]nc(-c3ccncc3)c2c1)[C@@H]1CCN(CC(=O)N2CCN(c3ccc(-c4ncccn4)cc3)CC2)C1 [SCH772984] (first compound max 10 µM, 7x7, partner max 5 µM)
2. CCN(CCO)CCCOc1ccc2c(Nc3cc(CC(=O)Nc4cccc(F)c4)[nH]n3)ncnc2c1 [AZD2811] + O=C(c1cc(Cc2n[nH]c(=O)c3ccccc23)ccc1F)N1CCN(C(=O)C2CC2)CC1 [Olaparib] (first compound max 1 µM, 7x7, partner max 10 µM)
3. CC1(C)CCC(CN2CCN(c3ccc(C(=O)NS(=O)(=O)c4ccc(NCC5CCOCC5)c([N+](=O)[O-])c4)c(Oc4cnc5[nH]ccc5c4)c3)CC2)=C(c2ccc(Cl)cc2)C1 [Venetoclax] + Cc1cc2ncnn2cc1Nc1ncc2c(n1)n(C1CCOCC1)c(=O)n2C [AZD7648] (first compound max 1 µM, 7x7, partner max 10 µM)
4. COc1nnc2ccc(N3CCC(c4ccc(OCCN5CCN(C)C(=O)[C@H]5C)cc4)CC3)nn12 [AZD5153] + C=CCn1c(=O)c2cnc(Nc3ccc(N4CCN(C)CC4)cc3)nc2n1-c1cccc(C(C)(C)O)n1 [AZD1775] (first compound max 1 µM, partner max 1 µM)
5. CC1(C)CCC(CN2CCN(c3ccc(C(=O)NS(=O)(=O)c4ccc(NCC5CCOCC5)c([N+](=O)[O-])c4)c(Oc4cnc5[nH]ccc5c4)c3)CC2)=C(c2ccc(Cl)cc2)C1 [Venetoclax] + CCN(CCO)CCCOc1ccc2c(Nc3cc(CC(=O)Nc4cccc(F)c4)[nH]n3)ncnc2c1 [AZD2811] (first compound max 1 µM, 7x7, partner max 1 µM)
6. CC1(C)CCC(CN2CCN(c3ccc(C(=O)NS(=O)(=O)c4ccc(NCC5CCOCC5)c([N+](=O)[O-])c4)c(Oc4cnc5[nH]ccc5c4)c3)CC2)=C(c2ccc(Cl)cc2)C1 [Venetoclax] + CN(C)CCCOc1ccc(-c2ccc3ncc4c(c3c2)n(C2CCOCC2)c(=O)n4C)cn1 [AZD0156] (first compound max 1 µM, 7x7, partner max 1 µM)
7. CC(=O)c1c(C)c2cnc(Nc3ccc(N4CCNCC4)cn3)nc2n(C2CCCC2)c1=O [Palbociclib] + Cc1c2c(nn1C)CSCc1cc(n(C)n1)CSc1cc(c3ccccc3c1)OCCCc1c(C(=O)O)n(C)c3c-2c(Cl)ccc13 [AZD5991] (first compound max 10 µM, 7x7, partner max 1 µM)

Result:
0.13
-0.0029
0.0142
0.0171
-0.0368
0.0196
-0.0073
